Target: UniProt:P61088
Assay: Ubc13/Uev1a ubiquitination inhibitors, SAR follow-up, biochemical, TR-FRET, set 2 (AID 485351)
Settings: in vitro Ubc13-Uev1a ubiquitination
Calls of active or inactive are those of the source. The rule behind the calls is not given here.
Give one outcome, nothing more. List: active, inactive

**Query** In this assay, the call recorded for c1ccc(CC(Nc2ccccc2)c2ccco2)cc1 (stereo not given) was what?
**Result** inactive

**Query** In this assay, the call recorded for COc1cc(/C=C2\C(=O)N(c3ccccc3)N=C2C)ccc1OCc1ccccc1 was what?
**Result** inactive

**Query** In this assay, the call recorded for COc1ccc2c(c1)C(=O)C(=O)N2CCN1CCOCC1 was what?
**Result** inactive

**Query** In this assay, the call recorded for COC(=O)C1=C(C(=O)OC)C2([C@H](Cc3ccccc3)Nc3ccccc3)C=CC1O2 (stereo not given in full) was what?
**Result** inactive

**Query** In this assay, the call recorded for COC(=O)C1=C(C(=O)OC)C2([C@@H](C)Nc3ccc(OC)cc3)C=CC1O2 (stereo not given in full) was what?
**Result** inactive

**Query** In this assay, the call recorded for C=CC[C@H](Nc1ccccc1)C12C=CC(O1)C(C(=O)OC)=C2C(=O)OC (stereo not given in full) was what?
**Result** inactive

**Query** In this assay, the call recorded for C=CC[C@H](Nc1ccc(Cl)cc1)C12C=CC(O1)C(C(=O)OC)=C2C(=O)OC (stereo not given in full) was what?
**Result** inactive

**Query** In this assay, the call recorded for CC(=O)NC1C(=O)N(CCN2CCOCC2)c2ccc(C)cc21 (stereo not given) was what?
**Result** inactive

**Query** In this assay, the call recorded for CCCCn1c(NC(=O)c2ccccc2Cl)c(S(=O)(=O)c2ccccc2)c2nc3ccccc3nc21 was what?
**Result** active

**Query** In this assay, the call recorded for COC(=O)C1=C(C(=O)OC)C2([C@H](Cc3ccccc3)Nc3ccc(OC)cc3)C=CC1O2 (stereo not given in full) was what?
**Result** inactive

**Query** In this assay, the call recorded for C=C[C@H](Nc1ccccc1)C12C=CC(O1)C(C(=O)OC)=C2C(=O)OC (stereo not given in full) was what?
**Result** active

**Query** In this assay, the call recorded for C=CC[C@H](N(Cc1ccccc1)/C(=C\C(=O)OC)C(=O)OC)C12C=CC(O1)C(C(=O)OC)=C2C(=O)OC (stereo not given in full) was what?
**Result** inactive

----------
Target: Ubiquitin-conjugating enzyme E2 N (Homo sapiens) (UniProt P61088)
Sequence (P61088 whole entry, looked up): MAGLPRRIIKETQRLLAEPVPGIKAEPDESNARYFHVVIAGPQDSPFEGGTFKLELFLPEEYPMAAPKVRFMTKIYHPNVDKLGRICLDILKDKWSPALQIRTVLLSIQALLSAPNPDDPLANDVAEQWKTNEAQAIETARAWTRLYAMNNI
Assay: Ubc13/Uev1a ubiquitination inhibitors, SAR follow-up, biochemical, TR-FRET, set 2 (AID 485351)
Settings: in vitro Ubc13-Uev1a ubiquitination
The source made the active and inactive calls. The rule behind the calls is not given here.
Give one outcome, nothing more. List: class 1 for active, class 0 for inactive

Study these solved cases before continuing.
COc1cc(/C=C2\C(=O)N(c3ccccc3)N=C2C)ccc1O; class 0
COC(=O)C1=C(C(=O)OC)C2([C@@H](Cc3ccc(OC)cc3)Nc3ccccc3)C=CC1O2 (some centres undefined); class 0

Next up:
**Query** In this assay, the call recorded for COc1ccc2c(c1)C(NC(C)=O)C(=O)N2CC1COc2ccccc2O1 (centres undefined) was what?
**Result** class 0

----------
Target: Ubiquitin-conjugating enzyme E2 N (Homo sapiens) (UniProt P61088)
Test: Ubc13/Uev1a ubiquitination inhibitors, SAR follow-up, biochemical, TR-FRET, set 2 (AID 485351)
Details: in vitro Ubc13-Uev1a ubiquitination
Active and inactive are the calls of the source. The rule behind the calls is not given here.
Give one outcome, nothing more. List: active, inactive

Study these solved cases before continuing.
Cc1cc(C)c2c(c1)C(=O)C(=O)N2CCN1CCOCC1; inactive
COc1ccc2c(c1)C(NC(C)=O)C(=O)N2CCc1ccccc1 (stereo not given); inactive
COC(=O)C1=C(C(=O)O)C2C=CC1([C@@H](Cc1ccccc1)Nc1ccccc1)O2 (stereo not given in full); inactive
CCCCCn1c(NC(=O)c2ccco2)c(C(=O)OCC)c2nc3ccccc3nc21; active
N#Cc1c(NC(=O)c2ccccc2Cl)n(C2CCCCC2)c2nc3ccccc3nc12; active

**Query** In this assay, the call recorded for CCCCn1c(NC(=O)c2ccc(OC)cc2)c(S(=O)(=O)c2ccc(C)cc2)c2nc3ccccc3nc21 was what?
**Result** active

**Query** In this assay, the call recorded for COC(=O)C1=C(C(=O)OC)C2([C@H](Cc3ccccc3)Nc3ccc(C)cc3)C=CC1O2 (stereo not given in full) was what?
**Result** inactive

**Query** In this assay, the call recorded for C=CC[C@@H](Nc1ccccc1)C12C=CC(O1)C(C(=O)OC)=C2C(=O)OC (stereo not given in full) was what?
**Result** inactive

**Query** In this assay, the call recorded for CCCCn1c(NC(=O)c2ccc(Cl)cc2)c(C#N)c2nc3ccccc3nc21 was what?
**Result** active

**Query** In this assay, the call recorded for C=C[C@@H](Nc1ccccc1)C12C=CC(O1)C(C(=O)OC)=C2C(=O)OC (stereo not given in full) was what?
**Result** inactive

----------
Biological target: Ubiquitin-conjugating enzyme E2 N (Homo sapiens)
Test: Ubc13/Uev1a ubiquitination inhibitors, SAR follow-up, biochemical, TR-FRET, set 2 (AID 485351)
Conditions: in vitro Ubc13-Uev1a ubiquitination
Calls of active or inactive are those of the source. How the calls were made is not given here.
Give one outcome, nothing more. List: YES = active, NO = inactive

Study these solved cases before continuing.
COCCn1c(NC(=O)c2ccc(Cl)cc2)c(S(=O)(=O)c2ccc(C)cc2)c2nc3ccccc3nc21; YES
COc1ccc2c(c1)C(NC(C)=O)C(=O)N2CCOc1ccccc1 (stereo unspecified); NO
COCCNC(=O)c1c(NC(=O)c2ccccc2)n(Cc2ccccc2)c2nc3ccccc3nc12; YES

**Query** In this assay, the call recorded for CCCCn1c(NC(=O)C2CCCCC2)c(C#N)c2nc3ccccc3nc21 was what?
**Result** YES

**Query** In this assay, the call recorded for COc1cc(/C=C2\C(=O)N(c3ccccc3)N=C2C)ccc1OC(=O)c1cccs1 was what?
**Result** NO

**Query** In this assay, the call recorded for CCCC1=NN(c2ccc(C(=O)O)cc2)C(=O)/C1=C/c1ccc(O)cc1 was what?
**Result** NO

----------
Target: Ubiquitin-conjugating enzyme E2 N (Homo sapiens) (UniProt P61088)
Test: Ubc13/Uev1a ubiquitination inhibitors, SAR follow-up, biochemical, TR-FRET, set 2 (AID 485351)
Settings: in vitro Ubc13-Uev1a ubiquitination
Activity calls are given as the source filed them. How the calls were made is not given here.
Give one outcome, nothing more. List: Yes = active, No = inactive

C=CC[C@@H](Nc1ccc(Cl)cc1)C12C=CC(O1)C(C(=O)OC)=C2C(=O)OC (stereo partly drawn); No
COc1ccc(CN2C(=O)C(NC(C)=O)c3ccccc32)cc1 (stereo not drawn); No
COC(=O)C1=C(C(=O)OC)C2(C(Cc3ccc(F)cc3)Nc3ccccc3)C=CC1O2 (stereo not drawn); No

**Query** In this assay, the call recorded for CCCC1=NN(c2ccccc2)C(=O)/C1=C\c1ccc(O)cc1 was what?
**Result** No

**Query** In this assay, the call recorded for CCCCn1c(NC(=O)CC)c(S(=O)(=O)c2ccc(C)cc2)c2nc3ccccc3nc21 was what?
**Result** Yes

**Query** In this assay, the call recorded for C=CCn1c(NC(=O)c2ccccc2Cl)c(C#N)c2nc3ccccc3nc21 was what?
**Result** Yes

**Query** In this assay, the call recorded for CCCC1=NN(c2ccc(C(=O)O)cc2)C(=O)/C1=C/c1ccc(OCc2ccccc2)cc1 was what?
**Result** No

**Query** In this assay, the call recorded for C=CCn1c(NS(=O)(=O)c2ccccc2)c(S(=O)(=O)c2ccc(C)cc2)c2nc3ccccc3nc21 was what?
**Result** Yes

----------
Biological target: Ubiquitin-conjugating enzyme E2 N (Homo sapiens) (UniProt P61088)
Test: Ubc13/Uev1a ubiquitination inhibitors, SAR follow-up, biochemical, TR-FRET, set 2 (AID 485351)
Settings: in vitro Ubc13-Uev1a ubiquitination
The source made the active and inactive calls. The rule behind the calls is not given here.
Give one outcome, nothing more. List: true (1) for active, false (0) for inactive

Study these solved cases before continuing.
COC(=O)C1=C(C(=O)OC)C2([C@@H](Cc3ccccc3)Nc3ccc(C)cc3)C=CC1O2 (stereo partly specified); false (0)
CCCCn1c(NC(=O)c2ccc(F)cc2)c(C#N)c2nc3ccccc3nc21; true (1)
C=CC[C@@H](N(Cc1ccccc1)/C(=C\C(=O)OC)C(=O)OC)C12C=CC(O1)C(C(=O)OC)=C2C(=O)OC (stereo partly specified); false (0)

**Query** In this assay, the call recorded for CCCCn1c(NC(=O)c2ccco2)c(C#N)c2nc3ccccc3nc21 was what?
**Result** true (1)

----------
Molecular target: Ubiquitin-conjugating enzyme E2 N (Homo sapiens)
Assay: Ubc13/Uev1a ubiquitination inhibitors, SAR follow-up, biochemical, TR-FRET, set 2 (AID 485351)
Conditions: in vitro Ubc13-Uev1a ubiquitination
Calls of active or inactive are those of the source. How the calls were made is not given here.
Give one outcome, nothing more. List: Y for active, N for inactive

Study these solved cases before continuing.
COC(=O)C1=C(C(=O)OC)C2([C@@H](C)Nc3ccccc3)C=CC1O2 (some centres not stated); N
C=CC[C@H](Nc1ccc(OC)cc1)C12C=CC(O1)C(C(=O)OC)=C2C(=O)OC (some centres not stated); N
C=CC[C@H](Nc1ccc(C)cc1)C12C=CC(O1)C(C(=O)OC)=C2C(=O)OC (some centres not stated); N
CCC(=O)Nc1c(S(=O)(=O)c2ccccc2)c2nc3ccccc3nc2n1Cc1ccccc1; Y
CCCCn1c(NC(=O)c2ccco2)c(S(=O)(=O)c2ccc(C)cc2)c2nc3ccccc3nc21; Y

**Query** In this assay, the call recorded for CCCC1=NN(c2ccc(C(=O)O)cc2)C(=O)/C1=C/c1ccc(OCc2ccccc2)c(OC)c1 was what?
**Result** N

**Query** In this assay, the call recorded for CCCCn1c(NS(=O)(=O)c2ccccc2)c(S(=O)(=O)c2ccc(C)cc2)c2nc3ccccc3nc21 was what?
**Result** Y

**Query** In this assay, the call recorded for CCC[C@@H](Nc1ccccc1)C12C=CC(O1)C(C(=O)OC)=C2C(=O)OC (some centres not stated) was what?
**Result** N

**Query** In this assay, the call recorded for CCCCNC(=O)c1c(NC(=O)c2ccccc2)n(Cc2ccccc2)c2nc3ccccc3nc12 was what?
**Result** Y

**Query** In this assay, the call recorded for COC(=O)C1=C(C(=O)OC)C2([C@H](C)Nc3ccccc3)C=CC1O2 (some centres not stated) was what?
**Result** Y
